Reference source: the RNAGym collection of RNA variant scans (doi:10.7554/elife.80360)

B1: HDV Ribozyme (parent)
chain: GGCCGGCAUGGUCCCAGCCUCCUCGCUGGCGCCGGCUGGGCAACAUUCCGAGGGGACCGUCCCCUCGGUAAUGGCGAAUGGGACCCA

# Variants of: B1
# METHOD: self-cleavage, relative activity (ratio to wild type); higher = more cleavage; co-transcriptional
Documented self-cleavage across a set of variants
RECORDED ENDPOINT: self-cleavage

    mutation_name  readout_number
 0       C7A C86U           0.831
 1      U37G G50A           0.113
 2      U20A G38A          0.0332
 3      G28A G59C           0.086
 4       G6C G73C               0
 5       A8G U65C            1.05
 6      G38C G80C           0.145
 7      G39A C64U           0.484
 8      G17A G81U           0.182
 9      C62U A87U            1.08
10      A70U G73A           0.614
11      G10A A16G           0.584
12      C26G C75U           0.262
13       U9A C84G           0.554
14      U12A C85U           0.481
15      C15A A71C            0.35
16      C61U C85A            1.07
17      G31A G81C           0.179
18      G38A C57A           0.128
19      C14G G55U           0.682
20      U27C G50C           0.858
21      U23G C57U           0.785
